target: Tankyrase 1/2 (Homo sapiens, UniProt Q9H2K2+O95271); settings: hek293
Description: Inhibition of TNKS/TNKS2 (unknown origin) expressed in HEK293 cells assessed as reduction in Wnt-signaling measured after 24 hrs by TCF-luciferase reporter gene assay
REPORTED_PROPERTY: IC50 (pM)

COCCN1C(=O)C2(CCN(c3nc4c(c(=O)[nH]3)CCCN4C)CC2)c2c(F)cc(F)cc21 ... 300

(A) CN1CCCc2c1nc(N1CCC3(CC1)C(=O)N(CC#N)c1cc(F)cc(F)c13)[nH]c2=O
(B) CN1CCCc2c1nc(N1CCC3(CC1)C(=O)N(CC(O)CO)c1cc(F)cc(F)c13)[nH]c2=O (configuration not stated)
(C) CN1CCCc2c1nc(N1CCC3(CC1)C(=O)N(C)c1cc(OCCN4CCOCC4)cc(F)c13)[nH]c2=O
(D) CN1CCN(CCOc2cc(F)c3c(c2)N(C)C(=O)C32CCN(c3nc4c(c(=O)[nH]3)CCCN4C)CC2)CC1
(E) CN1CCCc2c1nc(N1CCC3(CC1)C(=O)N(CC(=O)O)c1cc(F)cc(F)c13)[nH]c2=O
Query: Rank ascending by IC50. Output spec: a listing of the labels in the requested order.
Result: A, C, B, D, E
(A: 200 pM, C: 300 pM, B: 700 pM, D: 1200 pM, E: 221000 pM)

(a) CN1CCCc2c1nc(N1CCC3(CC1)C(=O)N(C)c1cc(OCCO)cc(F)c13)[nH]c2=O
(b) O=C1N(CCO)c2cc(F)cc(F)c2C12CCN(c1nc3c(c(=O)[nH]1)CCCC3)CC2
(c) CN1CCc2c1nc(N1CCC3(CC1)C(=O)N(CCO)c1cc(F)cc(F)c13)[nH]c2=O
(d) CN1CCC(Oc2cc(F)c3c(c2)N(C)C(=O)C32CCN(c3nc4c(c(=O)[nH]3)CCCN4C)CC2)CC1
(e) CN1CCCc2c1nc(N1CCC3(CC1)C(=O)N(CC1COC1)c1cc(F)cc(F)c13)[nH]c2=O
Query: Rank ascending by IC50. Output spec: a listing of the labels in the requested order.
Result: d, e, a, b, c
(d: 100 pM, e: 300 pM, a: 800 pM, b: 2100 pM, c: 4400 pM)

(I) Cn1ccc2c(=O)[nH]c(N3CCC4(CC3)C(=O)N(CCO)c3cc(F)cc(F)c34)nc21
(II) C[C@@H]1CN(c2cc(F)c3c(c2)N(C)C(=O)C32CCN(c3nc4c(c(=O)[nH]3)CCCN4C)CC2)C[C@H](C)O1
(III) CN1CCCc2c1nc(N1CCC3(CC1)C(=O)N(C)c1cc(N4CCNCC4)cc(F)c13)[nH]c2=O
Query: Rank ascending by IC50. Output spec: a listing of the labels in the requested order.
Result: II, I, III

(a) CN1CCCc2c1nc(N1CCC3(CC1)C(=O)N(CCO)c1cc(F)cc(F)c13)[nH]c2=O
(b) CN1CCCc2c1nc(N1CCC3(CC1)C(=O)N(C)c1cc(OCCN4CCCC4)cc(F)c13)[nH]c2=O
Query: Recorded IC50 values differ for a and b ; which one is higher? Indicate which entry you chose by stating its label.
Result: a
(a: 1100 pM, b: 400 pM)

====

molecular target: Poly [ADP-ribose] polymerase tankyrase-2 (Homo sapiens); test: Inhibition of recombinant human N-terminal TEV cleavage site-fused/FLAG-poly his-tagged TNKS2 ARC5-SAM-PARP domain (613 to 1166 residues) expressed in Escherichia coli assessed as reduction in auto-PARylation preincubated for 10 mins followed by biotinylated-NAD+ addition and measured after 45 mins by ELISA
Sequence (Q9H2K2 whole entry, the tested form may be a part): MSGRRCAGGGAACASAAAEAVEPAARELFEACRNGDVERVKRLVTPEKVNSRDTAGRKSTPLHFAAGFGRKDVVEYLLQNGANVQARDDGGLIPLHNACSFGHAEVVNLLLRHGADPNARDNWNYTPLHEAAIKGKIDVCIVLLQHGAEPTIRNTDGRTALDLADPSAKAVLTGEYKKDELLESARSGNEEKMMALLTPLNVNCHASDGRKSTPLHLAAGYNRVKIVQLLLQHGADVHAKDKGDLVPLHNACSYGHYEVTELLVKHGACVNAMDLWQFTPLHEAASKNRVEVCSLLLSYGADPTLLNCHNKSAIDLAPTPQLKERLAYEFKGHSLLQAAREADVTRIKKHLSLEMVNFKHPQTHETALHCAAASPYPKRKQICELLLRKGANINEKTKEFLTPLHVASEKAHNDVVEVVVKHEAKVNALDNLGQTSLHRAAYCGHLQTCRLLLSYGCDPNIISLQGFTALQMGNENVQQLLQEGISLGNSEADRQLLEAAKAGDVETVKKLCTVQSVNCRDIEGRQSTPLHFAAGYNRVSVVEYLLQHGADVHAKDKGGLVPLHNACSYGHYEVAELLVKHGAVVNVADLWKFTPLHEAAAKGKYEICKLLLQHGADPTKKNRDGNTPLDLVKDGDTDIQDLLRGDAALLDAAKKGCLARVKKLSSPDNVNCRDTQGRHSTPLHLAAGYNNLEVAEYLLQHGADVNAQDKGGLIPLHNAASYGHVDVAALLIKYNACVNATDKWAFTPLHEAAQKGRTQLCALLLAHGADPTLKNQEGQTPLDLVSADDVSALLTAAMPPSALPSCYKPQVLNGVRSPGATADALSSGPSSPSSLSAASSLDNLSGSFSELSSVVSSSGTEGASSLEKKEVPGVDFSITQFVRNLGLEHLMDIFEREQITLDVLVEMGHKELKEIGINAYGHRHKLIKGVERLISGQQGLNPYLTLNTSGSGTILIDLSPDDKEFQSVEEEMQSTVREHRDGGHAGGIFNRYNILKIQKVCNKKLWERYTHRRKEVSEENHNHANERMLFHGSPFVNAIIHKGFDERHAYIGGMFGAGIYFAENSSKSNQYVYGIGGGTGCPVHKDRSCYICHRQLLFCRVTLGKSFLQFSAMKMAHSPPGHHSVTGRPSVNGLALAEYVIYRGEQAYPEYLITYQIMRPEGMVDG
REPORTED_PROPERTY: IC50 (nM)

Answered examples (5):
CN1CCN(c2cc(F)c3c(c2)N(C)C(=O)C32CCN(c3nc4c(c(=O)[nH]3)CCCN4C)CC2)CC1 ... 12.3
CN1CCCc2c1nc(N1CCC3(CC1)C(=O)N(CC#N)c1cc(F)cc(F)c13)[nH]c2=O ... 6.1
CN1CCCc2c1nc(N1CCC3(CC1)C(=O)N(CC1COC1)c1cc(F)cc(F)c13)[nH]c2=O ... 12.2
CN1CCN(CCOc2cc(F)c3c(c2)N(C)C(=O)C32CCN(c3nc4c(c(=O)[nH]3)CCCN4C)CC2)CC1 ... 18.7
Cn1ccc2c(=O)[nH]c(N3CCC4(CC3)CN(CCO)c3cc(F)cc(F)c34)nc21 ... 7

(1) CN1CCCc2c1nc(N1CCC3(CC1)C(=O)N(C)c1cc(OCCN4CCCC4)cc(F)c13)[nH]c2=O
(2) CN1CCCc2c1nc(N1CCC3(CC1)C(=O)N(CC(=O)O)c1cc(F)cc(F)c13)[nH]c2=O
Query: Recorded IC50 values differ for 1 and 2 ; which one is higher? Indicate which entry you chose by stating its label.
Result: 2
(2: 29.8 nM, 1: 12.4 nM)

(1) COCCN1C(=O)C2(CCN(c3nc4c(c(=O)[nH]3)CCCN4C)CC2)c2c(F)cc(F)cc21
(2) CN1CCCc2c1nc(N1CCC3(CC1)CN(CCO)c1cc(F)cc(F)c13)[nH]c2=O
(3) CN1CCCc2c1nc(N1CCC3(CC1)C(=O)N(CS(C)(=O)=O)c1cc(F)cc(F)c13)[nH]c2=O
(4) CN1CCCc2c1nc(N1CCC3(CC1)C(=O)N(C)c1cc(OCCN4CCCCC4)cc(F)c13)[nH]c2=O
(5) CN1CCCc2c1nc(N1CCC3(CC1)C(=O)N(C)c1cc(N4CCCCC4)cc(F)c13)[nH]c2=O
Query: Please list the entries, largest IC50 first. Output spec: a listing of the labels in the requested order.
Result: 5, 4, 2, 1, 3
(5: 49.1 nM, 4: 33.3 nM, 2: 21.4 nM, 1: 11.7 nM, 3: 5.5 nM)
